// provenance: ChEMBL document CHEMBL1157808

# test system: Estrogen receptor beta (Homo sapiens)
# protocol summary: Agonist activity at ERbeta expressed in HEK293 cells at 10 uM after 24 hrs by luciferase reporter gene assay relative to 3,17-beta-estradiol
# Assay type: functional, cell-based

molecule | Activity
CC1(c2ccccc2)CC(CCc2ccccc2)=NO1 (single isomer, unassigned; 36a) | -20%
Oc1ccc(CC2CC(CCCc3ccc(O)c(O)c3)=NO2)cc1 (single isomer, unassigned; 28a) | -1.1%
CC1(c2ccccc2)CC(CCc2cccc(O)c2)=NO1 (single isomer, unassigned; 38b) | -2.9%
c1ccc(CCC2=NOC(c3ccccc3)C2)cc1 (single isomer, unassigned) | 8.1%
O=C(CCc1ccccc1O)CC(O)CCc1ccccc1 (racemic) | 1.1%
c1ccc(CCC2=NOC(Cc3ccccc3)C2)cc1 (single isomer, unassigned) | 1.3%
Oc1ccc(CCC2=NOC(CCc3ccccc3)C2)cc1 (stereo in doubt; 18b) | 0.8%
O=C(CCCc1ccccc1)CC(O)Cc1ccc(O)cc1 (racemic) | 2.4%
Fc1ccc(CC2CC(CCc3ccccc3)=NO2)cc1 (single isomer, unassigned) | 7.4%
O=C(CCc1ccc(O)cc1)CC(O)Cc1ccc(F)cc1 (racemic) | 21.2%
O=C(CCCc1ccc(O)c(O)c1)CC(O)Cc1ccc(O)cc1 (racemic) | -0.6%
O=C(CCc1ccccc1O)CC(O)Cc1ccc(F)cc1 (racemic) | 11.1%
CC1(c2ccccc2)CC(CCCc2ccc(O)cc2)=NO1 (single isomer, unassigned; 46a) | -0.9%
CC1(c2ccccc2)CC(CCc2ccc(O)cc2)=NO1 (single isomer, unassigned; 39b) | 37.4%
O=C(CCCc1ccc(O)cc1)CC(O)Cc1ccc(O)cc1 (stereo in doubt; 32b) | -1.6%
CC(O)(CC(=O)CCCc1ccccc1)c1ccccc1 (racemic) | 15.1%
CC(O)(CC(=O)CCc1ccc(O)cc1)c1ccccc1 (racemic) | 116%
O=C(CCc1ccc(O)cc1)CC(O)CCc1ccccc1 (racemic) | 10.1%
CC1(c2ccccc2)CC(CCc2ccccc2O)=NO1 (single isomer, unassigned; 37a) | -0.4%
Oc1ccccc1CCC1=NOC(Cc2ccc(F)cc2)C1 (stereo not given) | -2.4%
c1ccc(CCCC2=NOC(c3ccccc3)C2)cc1 (stereo in doubt; 43b) | 17.2%
Oc1ccc(CCCC2=NOC(c3cccc(O)c3)C2)cc1 (stereo in doubt; 47b) | 7.2%
O=C(CCc1ccccc1O)CC(O)Cc1ccccc1 (racemic) | 5.1%
Oc1ccc(CCC2=NOC(Cc3ccccc3)C2)cc1 (single isomer, unassigned; 3b) | 41.5%
c1ccc(CCCC2=NOC(c3ccccc3)C2)cc1 (stereo in doubt; 43a) | -3.1%
O=C(CCc1cccc(O)c1)CC(O)CCc1ccccc1 (racemic) | 48.1%
O=C(CCc1ccccc1)CC(O)Cc1ccc(O)cc1 (racemic) | 6.1%
Oc1ccccc1CCC1=NOC(Cc2ccccc2)C1 (single isomer, unassigned) | 30.5%
Oc1ccccc1CCC1=NOC(CCc2ccccc2)C1 (stereo in doubt; 16b) | 2.6%
Oc1ccc(CCCC2=NOC(c3cccc(O)c3)C2)cc1 (single isomer, unassigned) | -0.9%
